Hey, just so you know, these numbers are from paper PMC7586065.

test: Pharmacokinetics in xenograft model; assay type: in vivo, SCID mice; conditions: CB17 SCID, mouse, plasma, po, 100 mg/kg, Cmax, 100 mg/kg once daily oral, day 14
Property: Cmax (µM)
Numbers only, in µM.

# return recorded Cmax for entry CC[C@H](Nc1ncnc2[nH]cnc12)c1nc2cccc(F)c2c(=O)n1-c1ccccc1 [Idelalisib]
5.05

----------
experiment: Pharmacokinetics in xenograft model; type: in vivo, SCID mice; conditions: CB17 SCID, mouse, plasma, po, 200 mg/kg, Tmax, 200 mg/kg once daily oral, day 14
Property: Tmax

# return recorded Tmax for entry `CC[C@H](Nc1ncnc2[nH]cnc12)c1nc2cccc(F)c2c(=O)n1-c1ccccc1`
42 min

----------
test: Pharmacokinetics in xenograft model; format: in vivo, SCID mice; settings: CB17 SCID, mouse, plasma, po, 200 mg/kg, AUC(0-t), 200 mg/kg once daily oral, day 14
Property: AUC(0-t) (ng·h/mL)
Answers are plain numbers, in ng·h/mL.

# return recorded AUC(0-t) for entry `CC[C@H](Nc1ncnc2[nH]cnc12)c1nc2cccc(F)c2c(=O)n1-c1ccccc1`
22400

----------
experiment: Pharmacokinetics in xenograft model; format: in vivo, SCID mice; conditions: CB17 SCID, mouse, plasma, po, 100 mg/kg, T1/2, 100 mg/kg once daily oral, day 14
Property: half-life (h)
Numbers only, in h.

# return recorded half-life for entry `CC[C@H](Nc1ncnc2[nH]cnc12)c1nc2cccc(F)c2c(=O)n1-c1ccccc1`
1.8

----------
experiment: Pharmacokinetics in xenograft model; format: in vivo, SCID mice; conditions: CB17 SCID, mouse, plasma, po, 200 mg/kg, Tmax, 200 mg/kg once daily oral, day 1
Property: Tmax (min)
One number for each entry, in min.

# return recorded Tmax for entry `CC[C@H](Nc1ncnc2[nH]cnc12)c1nc2cccc(F)c2c(=O)n1-c1ccccc1`
48

----------
test: Pharmacokinetics in xenograft model; assay type: in vivo, SCID mice; conditions: CB17 SCID, mouse, plasma, po, 200 mg/kg, T1/2, 200 mg/kg once daily oral, day 14
Property: half-life (h)
One number for each entry, in h.

# return recorded half-life for entry `CC[C@H](Nc1ncnc2[nH]cnc12)c1nc2cccc(F)c2c(=O)n1-c1ccccc1`
4.3

----------
assay: Pharmacokinetics in xenograft model; type: in vivo, SCID mice; conditions: CB17 SCID, mouse, plasma, po, 200 mg/kg, T1/2, 200 mg/kg once daily oral, day 1
Property: half-life (h)
Numbers only, in h.

# return recorded half-life for entry CC[C@H](Nc1ncnc2[nH]cnc12)c1nc2cccc(F)c2c(=O)n1-c1ccccc1 [Idelalisib]
1.9

----------
assay: Pharmacokinetics in xenograft model; assay type: in vivo, SCID mice; conditions: CB17 SCID, mouse, plasma, po, 200 mg/kg, Cmax, 200 mg/kg once daily oral, day 1
Property: Cmax (µM)
Numbers only, in µM.

# return recorded Cmax for entry CC[C@H](Nc1ncnc2[nH]cnc12)c1nc2cccc(F)c2c(=O)n1-c1ccccc1 [Idelalisib]
11.1

----------
target: PI3Kα (Mus musculus, UniProt P42337); assay: Cell-based pAKT AlphaLISA, IGF-1 stimulated C2C12 cells
Sequence (P42337 whole entry): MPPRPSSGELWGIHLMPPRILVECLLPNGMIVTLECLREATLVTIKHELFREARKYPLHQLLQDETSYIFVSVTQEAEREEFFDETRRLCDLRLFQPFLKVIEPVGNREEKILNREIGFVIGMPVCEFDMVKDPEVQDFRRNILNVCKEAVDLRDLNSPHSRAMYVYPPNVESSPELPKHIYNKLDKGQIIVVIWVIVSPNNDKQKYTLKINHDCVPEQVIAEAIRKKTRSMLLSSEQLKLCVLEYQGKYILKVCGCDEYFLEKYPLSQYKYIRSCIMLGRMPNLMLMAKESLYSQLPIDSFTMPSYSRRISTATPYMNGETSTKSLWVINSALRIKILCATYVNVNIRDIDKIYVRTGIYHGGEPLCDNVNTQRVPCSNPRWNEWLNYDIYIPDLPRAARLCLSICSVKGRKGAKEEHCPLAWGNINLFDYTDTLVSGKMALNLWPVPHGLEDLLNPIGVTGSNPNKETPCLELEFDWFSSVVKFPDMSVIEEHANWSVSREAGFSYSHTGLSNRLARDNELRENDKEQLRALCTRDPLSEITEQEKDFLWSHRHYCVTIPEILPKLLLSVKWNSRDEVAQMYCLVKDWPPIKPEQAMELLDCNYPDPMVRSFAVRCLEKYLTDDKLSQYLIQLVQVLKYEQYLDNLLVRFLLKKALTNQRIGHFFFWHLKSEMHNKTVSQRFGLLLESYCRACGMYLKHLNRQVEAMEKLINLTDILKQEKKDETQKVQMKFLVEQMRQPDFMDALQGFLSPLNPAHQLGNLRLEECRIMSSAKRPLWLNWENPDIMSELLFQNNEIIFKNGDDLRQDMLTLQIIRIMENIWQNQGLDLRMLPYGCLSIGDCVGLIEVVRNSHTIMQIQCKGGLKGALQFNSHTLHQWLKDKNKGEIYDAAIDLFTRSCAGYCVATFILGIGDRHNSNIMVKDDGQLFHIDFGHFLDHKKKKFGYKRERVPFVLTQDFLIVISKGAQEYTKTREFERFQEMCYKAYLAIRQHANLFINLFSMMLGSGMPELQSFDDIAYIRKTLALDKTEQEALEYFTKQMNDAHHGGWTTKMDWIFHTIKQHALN
Sequence (P26450 whole entry partner): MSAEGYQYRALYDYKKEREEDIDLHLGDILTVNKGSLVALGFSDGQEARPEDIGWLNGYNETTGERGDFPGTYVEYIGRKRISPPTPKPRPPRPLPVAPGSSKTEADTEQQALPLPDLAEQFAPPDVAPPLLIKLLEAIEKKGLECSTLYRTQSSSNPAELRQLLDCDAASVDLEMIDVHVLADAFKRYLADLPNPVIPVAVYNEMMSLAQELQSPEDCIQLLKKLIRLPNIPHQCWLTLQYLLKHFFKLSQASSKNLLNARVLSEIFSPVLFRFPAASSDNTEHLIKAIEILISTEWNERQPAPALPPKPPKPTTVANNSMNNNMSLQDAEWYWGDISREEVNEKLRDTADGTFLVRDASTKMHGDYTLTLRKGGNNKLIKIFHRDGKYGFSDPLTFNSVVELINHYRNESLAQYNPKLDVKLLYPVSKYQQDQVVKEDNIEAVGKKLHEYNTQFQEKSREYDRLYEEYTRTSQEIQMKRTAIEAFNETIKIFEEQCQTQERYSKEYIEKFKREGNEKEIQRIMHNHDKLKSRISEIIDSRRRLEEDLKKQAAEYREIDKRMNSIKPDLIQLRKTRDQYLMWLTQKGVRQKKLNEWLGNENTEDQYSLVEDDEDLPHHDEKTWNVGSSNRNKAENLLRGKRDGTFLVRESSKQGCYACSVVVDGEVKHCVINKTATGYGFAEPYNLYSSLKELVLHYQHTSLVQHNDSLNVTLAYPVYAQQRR
Property: IC50

# return recorded IC50 for entry `CC[C@H](Nc1ncnc2[nH]cnc12)c1nc2cccc(F)c2c(=O)n1-c1ccccc1`
> 30 µM
